molecular target: T1, recombinant Thioredoxin-His-tagged PfPIMMS43 (amino acids 26-481), full-length (FL) recombinant PfPIMMS43 (Plasmodium falciparum, 3D7 entry (NF54 …, UniProt C6KT40)); assay: ELISA; dose response ELISA; MaxiSorp plates coated with 2 ug/mL recombinant PfPIMMS43 in PBS overnight, blocked with 4% skimmed milk; VHH from 1000 nM in serial 1:10 dilutions, 1 h at room temperature; detected with rabbit anti-VHH and donkey anti-rabbit HRP, OPD, 490 nm; settings: both partners purified
T1 construct: PfPIMMS43 (PSOP25) of Plasmodium falciparum, a 505-amino acid protein; E. coli codon-optimised; the methods give 25-481; pET-32b vector; Results give 26-481, methods 25-481; also called TRX-His-PfPIMMS43; PSOP25; not shown: Thioredoxin (TRX), N-terminal, kept; His6, N-terminal, kept; His6, C-terminal, kept
T1 sequence (C6KT40 26-481): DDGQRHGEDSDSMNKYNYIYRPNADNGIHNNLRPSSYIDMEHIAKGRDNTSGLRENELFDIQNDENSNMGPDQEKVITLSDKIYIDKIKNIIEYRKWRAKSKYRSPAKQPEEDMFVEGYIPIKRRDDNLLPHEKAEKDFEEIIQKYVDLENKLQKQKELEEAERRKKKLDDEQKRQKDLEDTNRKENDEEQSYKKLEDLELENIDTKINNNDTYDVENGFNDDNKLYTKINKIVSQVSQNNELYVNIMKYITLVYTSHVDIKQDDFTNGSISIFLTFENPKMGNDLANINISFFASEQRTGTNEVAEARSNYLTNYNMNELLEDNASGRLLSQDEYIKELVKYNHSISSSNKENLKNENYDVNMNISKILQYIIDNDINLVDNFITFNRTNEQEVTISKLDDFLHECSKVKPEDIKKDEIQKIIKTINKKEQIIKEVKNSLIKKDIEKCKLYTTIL
Give binding affinity (dose response ELISA) for every item shown.

PfPIMMS43 nanobody B11 (VHH, llama VHH; From an immune llama library (Eurogentec, pQ81 phagemid)) VHH: EVQLVESGGGLVRAGDSLRLSCAASGTPLSSYTMGWFRQAPGKEREFVAASCWRGGSAYDADSIEGRFTISRDNAKNTVYLQMNSLKPEDTAVYYCAAVFAYICSSYGNRSPSRYGYWGQGTQVTVSS | > 50 nM
PfPIMMS43 nanobody E1 (VHH, llama VHH; From an immune llama library (Eurogentec, pQ81 phagemid)) VHH: EVQLVESGGGLVQAGDSLRLSCAASDSTFSIYVMGWFRQAPGKEREFVAAITGSGGNTNYADSVKGRFTVSRDNAKHTVYLQMNSLKPEDAAVYYCAAGGSYSRSSLNYPYWGQGTQVTVSS | > 50 nM
PfPIMMS43 nanobody A5 (VHH, llama VHH; From an immune llama library (Eurogentec, pQ81 phagemid)) VHH: EVQLVESGGGLVQAGVSLRLSCAASGRSLSNYAMGWFRQAPGKEREFVASITGSGSSTYYLNSVKGRFIISKDNAKNTVYLQMNSLKPEDTAVYYCAADSTGVARYTNRYDYWGQGTRVTVSS | > 50 nM

q: Would you kindly share the measured binding affinity (dose response ELISA) for PfPIMMS43 nanobody E5 (VHH, llama VHH; From an immune llama library (Eurogentec, pQ81 phagemid); CDR2 of 7 and CDR3 of 8 amino acids) VHH: EVQLVESGGGLVQAGGSLRLSCAASGIHFNFKAMAWYRQAPGKQRELVAAIAPDDDTNYADSVKGRFTISRDNAKNTVYLQMNSLKPEDTAVYYCNTRIRIDYWGQGTQVTVSS ?
a: 5 nM
